Assay: Acute toxicity, minimal motor impairment (rotorod), mice
Type: in vivo
Conditions: mice, 30 mg/kg, 4 h, rotorod

molecule: CCOC(=O)C1[C@@H]2[C@@H](O)[C@@H]3O[C@H](c4ccccc4)OC[C@H]3O[C@H]12 (stereo partly shown) [Compound 20a]
TOX 30 4 h (animals toxic/tested): 0/2

molecule: CCOC(=O)C1[C@@H]2[C@@H](O)[C@@H]3O[C@H](c4ccc(C(C)(C)C)cc4)OC[C@H]3O[C@H]12 (stereo partly shown) [Compound 20c]
TOX 30 4 h (animals toxic/tested): 0/2

molecule: CCOC(=O)C1[C@@H]2[C@@H](OS(N)(=O)=O)[C@@H]3O[C@H](c4ccc(OC)cc4)OC[C@H]3O[C@H]12 (stereo partly shown) [Compound 17b]
TOX 30 4 h (animals toxic/tested): 0/2

molecule: CCOC(=O)C1[C@@H]2[C@@H](OC)[C@@H]3O[C@H](c4ccc(OC)cc4)OC[C@H]3O[C@H]12 (stereo partly shown)
TOX 30 4 h (animals toxic/tested): 0/2
